testDetails: Dog pharmacokinetics after IA injection (plasma, cartilage, bone, synovial fluid)
Type: in vivo, beagle dogs
conditionContext: male, beagle, plasma, other: intra-articular; dog; 15 min post-dose; 3 or 30 μg/knee; BQL
recordedEndpoint: concentration at 15 min

Can you share its concentration at 15 min? I mean this compound: CC(C)CC(=O)Nc1cncc(-c2ccc3[nH]nc(-c4nc5c(-c6cccc(F)c6)cncc5[nH]4)c3c2)c1 [compound of Formula (I)]
< 2000 ng/mL

---

testDetails: Solubility of the starting solid by the gravimetric method
Type: physicochemical
conditionContext: organic solvent or mixture, thermodynamic from solid; n-Propanol; 50° C.; read-out: Solubility at 50° C.
recordedEndpoint: solubility
Entry format: amount then unit.

I am curious: what solubility value has been reported for CC(C)CC(=O)Nc1cncc(-c2ccc3[nH]nc(-c4nc5c(-c6cccc(F)c6)cncc5[nH]4)c3c2)c1 [starting solid] ?
2000 µg/mL

---

testDetails: Solubility of the starting solid by the gravimetric method
Format: physicochemical
conditionContext: organic solvent or mixture, thermodynamic from solid; DCM; 50° C.; read-out: Solubility at 50° C.
recordedEndpoint: solubility (µg/mL)
Kindly answer with a numeric value in µg/mL, unit omitted.

Find the recorded solubility belonging to CC(C)CC(=O)Nc1cncc(-c2ccc3[nH]nc(-c4nc5c(-c6cccc(F)c6)cncc5[nH]4)c3c2)c1 and report it.
2000

---

testDetails: Rat pharmacokinetics after IA injection (plasma, knee joint)
Format: in vivo, Sprague Dawley rats
conditionContext: Sprague Dawley, rat, bone, other: intra-articular injection; rats, single IA, 3 μg/knee, Day 180; read-out: Formula (I) concentration, Bone
recordedEndpoint: concentration at 180 day (ng/g)
Report only the number, with the unit ng/g understood.

Item CC(C)CC(=O)Nc1cncc(-c2ccc3[nH]nc(-c4nc5c(-c6cccc(F)c6)cncc5[nH]4)c3c2)c1 [compound of Formula (I)] has what recorded concentration at 180 day?
15

---

testDetails: Solubility of the starting solid by the gravimetric method
Assay type: physicochemical
conditionContext: organic solvent or mixture, thermodynamic from solid; Acetone; 50° C.; read-out: Solubility at 50° C.
recordedEndpoint: solubility (µg/mL)
The answer is to be given in µg/mL; state only the numeric part.

Given CC(C)CC(=O)Nc1cncc(-c2ccc3[nH]nc(-c4nc5c(-c6cccc(F)c6)cncc5[nH]4)c3c2)c1 , state its recorded solubility.
1000

---

testDetails: Solubility of the starting solid by the gravimetric method
Assay type: physicochemical
conditionContext: organic solvent or mixture, thermodynamic from solid; Acetic acid; 50° C.; read-out: Solubility at 50° C.
recordedEndpoint: solubility
Please don't drop the unit; write it after the number.

Endpoint output: solubility of CC(C)CC(=O)Nc1cncc(-c2ccc3[nH]nc(-c4nc5c(-c6cccc(F)c6)cncc5[nH]4)c3c2)c1 [starting solid] . Value?
3000 µg/mL

---

testDetails: Solubility of the starting solid by the gravimetric method
Type: physicochemical
conditionContext: organic solvent or mixture, thermodynamic from solid; n-Propanol; RT; read-out: Solubility at RT
recordedEndpoint: solubility (µg/mL)
Please reply with the bare figure in µg/mL and do not write the unit itself.

Quick one: solubility of CC(C)CC(=O)Nc1cncc(-c2ccc3[nH]nc(-c4nc5c(-c6cccc(F)c6)cncc5[nH]4)c3c2)c1 ?
1000
